Test system: KAIMRC1 (Breast)
Test: MTT cell proliferation assay, KAIMRC1
Type: cell-based, human
Conditions: MTT, 48 h treatment, medium with 10% FBS; read-out: IC50 μM KAIMRC1 (Breast)
result.type: IC50 (µM)

- O=C1c2c(O)ccc(O)c2C(=O)c2c(NCCNCCO)ccc(NCCNCCO)c21 [Mitoxanthrone, reference compound]: 10.1

----------
Test system: HCT 8 (Colon)
Assay: MTT cell proliferation assay, HCT 8
Format: cell-based, human
Details: Homo sapiens, HCT-8; MTT, 48 h treatment, medium with 10% FBS; read-out: IC50 μM HCT 8 (Colon)
// IC50 lookup, one value per entry
result.type: IC50

* CCC1(C)OC(=O)C(=C/C=C/c2ccncc2)C(=O)O1 (centres unmarked) | 2.17 µM
* CC1(C)OC(=O)C(=CC=Cc2cccc3ccccc23)C(=O)O1 | 5.78 µM
* O=C1OC2(CCCCC2)OC(=O)C1=CC=Cc1ccnc2ccccc12 | 12.9 µM
* CC1(C)OC(=O)C(=CC=Cc2cncc3ccccc23)C(=O)O1 | 1.37 µM
* CCC1(C)OC(=O)C(=CC=Cc2ccnc3ccccc23)C(=O)O1 (centres unmarked) | 19.8 µM
* CCC1(C)OC(=O)C(=CC=Cc2cncc3ccccc23)C(=O)O1 (centres unmarked) | 1.87 µM
* CCCC1(C)OC(=O)C(=CC=Cc2ccnc3ccccc23)C(=O)O1 (centres unmarked) | 18.9 µM
* CC1(C)OC(=O)C(=CC=Cc2ccnc3ccccc23)C(=O)O1 | 14.1 µM
* O=C1OC2(CCC2)OC(=O)C1=CC=Cc1cccc2ccccc12 | 3.87 µM
* O=C1OC2(CCC2)OC(=O)C1=CC=Cc1cncc2ccccc12 | 6.01 µM
* CCC1(C)OC(=O)C(=CC=Cc2cccc3ccccc23)C(=O)O1 (centres unmarked) | 2.95 µM

----------
Tested on: MCF-7 (Breast)
Experiment: MTT cell proliferation assay, MCF-7
Assay type: cell-based, human
Details: Homo sapiens, MCF7; MTT, 48 h treatment, medium with 10% FBS; read-out: IC50 μM MCF-7 (Breast)
IC50 under 9 µM gets TRUE, anything at or over 9 µM gets FALSE.

* O=C1OC2(CCC2)OC(=O)C1=CC=Cc1cccc2ccccc12 | TRUE
* O=C1OC2(CCC2)OC(=O)C1=CC=Cc1cncc2ccccc12 | TRUE
* O=C1OC2(CCCCC2)OC(=O)C1=CC=Cc1ccnc2ccccc12 | FALSE
* CCCC1(C)OC(=O)C(=CC=Cc2ccnc3ccccc23)C(=O)O1 (stereo not drawn) | FALSE
* CCC1(C)OC(=O)C(=C/C=C/c2ccncc2)C(=O)O1 (stereo not drawn) | FALSE
* CCC1(C)OC(=O)C(=CC=Cc2cccc3ccccc23)C(=O)O1 (stereo not drawn) | TRUE
* CC1(C)OC(=O)C(=CC=Cc2ccnc3ccccc23)C(=O)O1 | FALSE
* CCC1(C)OC(=O)C(=CC=Cc2cncc3ccccc23)C(=O)O1 (stereo not drawn) | FALSE

----------
System: HL 60 (leukemia)
Test: Cell Titre Glo luminescent cell viability assay, HL 60
Type: cell-based
Conditions: Homo sapiens, HL-60; Cell Titre Glo luminescence, normalized to DMSO controls
result.type: IC50

- O=C1OC2(CCC2)OC(=O)C1=CC=Cc1cccc2ccccc12 [Example 20]: 2.41 µM
- CCC1(C)OC(=O)C(=CC=Cc2ccnc3ccccc23)C(=O)O1 (stereo not shown) [Example 13]: 1.04 µM
- CCC1(C)OC(=O)C(=CC=Cc2cncc3ccccc23)C(=O)O1 (stereo not shown) [Example 12]: 2.05 µM
- CC1(C)OC(=O)C(=CC=Cc2ccnc3ccccc23)C(=O)O1 [Example 11]: 1.86 µM

Measured values drawn from patent US11161823B2 for this set.
